- assayed_system: T1, Human LAG3 ECD-Fc (human, UniProt P18627 23-450)
- T1 construct: extracellular domain; 23-450 is stated only for the immunogen; also called recombinant human LAG3 extracellular domain fused to human Fc; hLAG3-hlgFc; not shown: Fc
- T1 sequence (looked up): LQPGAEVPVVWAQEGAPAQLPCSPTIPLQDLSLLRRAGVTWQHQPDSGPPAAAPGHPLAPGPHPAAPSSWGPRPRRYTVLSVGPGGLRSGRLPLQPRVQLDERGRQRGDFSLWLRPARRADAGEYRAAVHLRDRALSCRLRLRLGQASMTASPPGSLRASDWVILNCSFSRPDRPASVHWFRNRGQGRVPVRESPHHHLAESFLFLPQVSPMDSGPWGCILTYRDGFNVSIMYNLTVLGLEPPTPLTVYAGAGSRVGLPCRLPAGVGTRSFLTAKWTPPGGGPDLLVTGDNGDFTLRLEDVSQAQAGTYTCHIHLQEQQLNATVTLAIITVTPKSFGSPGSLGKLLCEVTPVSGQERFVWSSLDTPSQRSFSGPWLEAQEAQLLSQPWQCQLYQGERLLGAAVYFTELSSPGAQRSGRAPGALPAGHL
- experiment_summary: SPR, antibody captured on Protein A/G, LAG3 ECD-Fc as analyte, 1:1 Langmuir fit
Measured Kd by item
Your answer should be a plain number; it is taken to be in nM.

# example entries with known answers
binder | numeric_result
LAG3-3 (antibody, human IgG4 S228P, kappa, V domains shown, Humanized derivative of murine 496G6, human IgG4 (Pro) format, kappa; also called anti-LAG3 antibody LAG3-3) VH: QVTLVESGGGVVQPGRSLSLSCAFSGFSLSTSDMGVGWVRQPPGKGLEWVAHIWWDDVKRYNPALKSRFTISRDNSKNTLYLQMNSLRAEDTATYYCARIEDYGVSYYFDYWGQGTTVTVSS VL: DIQMTQSPSFLSASVGDRVTITCKASQDVSTAVAWYQQKPGKAPKLLIYSASYRYTGVPDRFSGSGSGTDFTLTISSLQPEDFATYYCQQHYSIPLTFGAGTKLEIKR | 0.12
LAG3-2 (antibody, human IgG4 S228P, kappa, V domains shown, Humanized derivative of murine 496G6, human IgG4 (Pro) format, kappa; also called anti-LAG3 antibody LAG3-2) VH: QVTLKESGPTLVKPTQTLTLTCSFSGFSLSTSDMGVGWIRQPPGKALEWLAHIWWDDVKRYNPALKSRLTITKDTSKNQVVLTMTNMDPVDTATYFCARIEDYGVSYYFDYWGQGTTVTVSS VL: DIQMTQSPSFLSASVGDRVTFTCKASQDVSTAVAWYQQKPGKAPKLLIYSASYRYTGVPDRFSGSGSGTDFTLTISSLQPEDFATYYCQQHYSIPLTFGQGTKLEIKR | 0.09
LAG3-5 (antibody, human IgG4 S228P, kappa, V domains shown, Humanized derivative of murine 496G6, human IgG4 (Pro) format, kappa; also called anti-LAG3 antibody LAG3-5) VH: QVTLKESGPTLVKPTQTLTLTCSFSGFSLSTSDMGVGWIRQPPGKALEWLAHIWWDDVKRYNPALKSRLTITKDTSKNQVVLTMTNMDPVDTATYFCARIVDYGVSYYFDYWGQGTTVTVSS VL: DIQMTQSPSFLSASVGDRVSITCKASQDVSTAVAWYQQKPGKAPKLLIYSASYRYTGVPDRFSGSGSGTDFTLTISSLQPEDFAVYYCQQHYSIPLTFGQGTKLEIKR | 0.07
LAG3-1 (antibody, human IgG4 S228P, kappa, V domains shown, Humanized derivative of murine 496G6, human IgG4 (Pro) format, kappa; also called representative anti-LAG3 antibody of the invention) VH: QVTLVESGGGVVQPGRSLRLSCAFSGFSLSTSDMGVGWIRQAPGKGLEWVAHIWWDDVKRYNPALKSRFTISRDNSKNTLYLQMNSLRAEDTAVYFCARIEDYGVSYYFDYWGQGTTVTVSS VL: DIQMTQSPSFLSASVGDRVSITCKASQDVSTAVAWYQQKPGKAPKLLIYSASYRYTGVPDRFSGSGSGTDFTLTISSLQPEDFATYYCQQHYSIPLTFGQGTKLEIKR | 0.125

Pending binder:
# get_value(readout='Kd', item= LAG3-4 (antibody, human IgG4 S228P, kappa, V domains shown, Humanized derivative of murine 496G6, human IgG4 (Pro) format, kappa; also called anti-LAG3 antibody LAG3-4) VH: QVTLVESGGGVVQPGRSLRLSCAFSGFSLSTSDMGVGWIRQAPGKGLEWVAHIWWDDVKRYNPALKSRFTISRDNSKNTLYLQMNSLRAEDTATYFCARIEDYGVSYYFDYWGQGTTVTVSS VL: DIVMTQSPSFLSASVGDRVTITCKASQDVSTAVAWYQQKPGKAPKLLIYSASYRYTGVPDRFSGSGSGTDFTLTISSLQPEDFATYYCQQHYSIPLTFGQGTKLEIKR )
0.1
